- test system: Ba/F3-FL-EGFR (del19-E746-A750/T790M/C797S) (Homo sapiens, UniProt P00533, DEL746-750/T790M/C797S, cells depend on it)
- Sequence (P00533 with tags, fused parts or gaps DEL746-750/T790M/C797S): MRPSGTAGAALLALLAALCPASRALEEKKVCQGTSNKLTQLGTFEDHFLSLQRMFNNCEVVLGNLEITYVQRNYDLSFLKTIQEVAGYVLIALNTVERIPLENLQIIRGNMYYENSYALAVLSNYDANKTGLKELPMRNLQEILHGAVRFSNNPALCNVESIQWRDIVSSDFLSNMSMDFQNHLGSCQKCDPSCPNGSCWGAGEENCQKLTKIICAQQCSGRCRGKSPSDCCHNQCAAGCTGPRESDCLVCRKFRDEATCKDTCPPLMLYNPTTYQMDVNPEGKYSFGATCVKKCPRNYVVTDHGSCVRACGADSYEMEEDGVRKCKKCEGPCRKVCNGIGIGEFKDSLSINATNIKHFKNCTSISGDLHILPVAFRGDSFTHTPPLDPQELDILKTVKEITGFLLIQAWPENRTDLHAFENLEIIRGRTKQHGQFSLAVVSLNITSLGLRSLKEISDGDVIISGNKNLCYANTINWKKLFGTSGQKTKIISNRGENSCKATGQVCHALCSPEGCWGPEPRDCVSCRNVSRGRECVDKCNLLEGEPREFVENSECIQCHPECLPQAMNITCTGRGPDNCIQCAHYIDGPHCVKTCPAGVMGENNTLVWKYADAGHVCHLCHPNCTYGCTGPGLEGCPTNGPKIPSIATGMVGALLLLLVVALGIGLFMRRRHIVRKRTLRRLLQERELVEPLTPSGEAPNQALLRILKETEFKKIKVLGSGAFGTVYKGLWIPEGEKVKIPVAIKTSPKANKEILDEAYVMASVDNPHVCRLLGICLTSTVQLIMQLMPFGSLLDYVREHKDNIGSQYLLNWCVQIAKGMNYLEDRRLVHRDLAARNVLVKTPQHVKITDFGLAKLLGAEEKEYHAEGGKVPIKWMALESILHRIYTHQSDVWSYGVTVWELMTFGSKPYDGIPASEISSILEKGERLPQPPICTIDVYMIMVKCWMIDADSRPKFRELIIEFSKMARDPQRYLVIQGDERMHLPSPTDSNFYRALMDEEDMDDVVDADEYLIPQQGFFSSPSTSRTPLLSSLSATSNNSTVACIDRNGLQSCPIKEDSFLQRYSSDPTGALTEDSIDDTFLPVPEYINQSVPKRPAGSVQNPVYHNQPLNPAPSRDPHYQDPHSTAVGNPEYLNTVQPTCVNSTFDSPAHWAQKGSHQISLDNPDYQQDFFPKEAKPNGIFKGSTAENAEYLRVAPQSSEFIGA
- protocol: Cell proliferation inhibition, CellTiter-Glo
- Type: cell-based
- protocol conditions: 72 hours, read-out: Cell half-maximal inhibition concentration IC50 Ba/F3-FL-EGFR (del19-E746-A750/T790M/C797S)
# note: boundary value 1 nM maps to no; GI50 below it maps to yes

In: Given Cc1cc2cc(n1)-c1cnn(C)c1OCCC[C@@H](C)CN1/C(=N/C2=O)Nc2ccc(N=S3(=O)CCCC3)cc21 [WX-010 (trifluoroacetate)] , is recorded GI50 strictly lower than 1 nM?
Out: yes

In: // query: Cc1cc2cc(n1)-c1cnn(C)c1OCCC[C@@H](C)CN1/C(=N/C2=O)Nc2ccc(N=S(C)(C)=O)c(Cl)c21
Out: no

In: // query: Cc1cc2cc(n1)-c1cnn(C)c1OCCC[C@@H](C)CN1/C(=N/C2=O)Nc2ccc(N=S3(=O)CCNCC3)cc21
Out: no

In: // query: Cc1cc2cc(n1)-c1cnn(C)c1OCCC[C@@H](C)CN1/C(=N/C2=O)Nc2ccc(N=S(C)(C)=O)cc21
Out: yes

In: // query: Cc1cc2cc(n1)-c1cnn(C)c1OC[C@H]1CC[C@H](C1)CN1/C(=N/C2=O)Nc2ccc(N=S(C)(C)=O)cc21 (single isomer, unassigned) [WX-027A]
Out: no

====

- test system: CYP2C19 (Homo sapiens, UniProt P33261)
- Sequence (P33261 whole entry): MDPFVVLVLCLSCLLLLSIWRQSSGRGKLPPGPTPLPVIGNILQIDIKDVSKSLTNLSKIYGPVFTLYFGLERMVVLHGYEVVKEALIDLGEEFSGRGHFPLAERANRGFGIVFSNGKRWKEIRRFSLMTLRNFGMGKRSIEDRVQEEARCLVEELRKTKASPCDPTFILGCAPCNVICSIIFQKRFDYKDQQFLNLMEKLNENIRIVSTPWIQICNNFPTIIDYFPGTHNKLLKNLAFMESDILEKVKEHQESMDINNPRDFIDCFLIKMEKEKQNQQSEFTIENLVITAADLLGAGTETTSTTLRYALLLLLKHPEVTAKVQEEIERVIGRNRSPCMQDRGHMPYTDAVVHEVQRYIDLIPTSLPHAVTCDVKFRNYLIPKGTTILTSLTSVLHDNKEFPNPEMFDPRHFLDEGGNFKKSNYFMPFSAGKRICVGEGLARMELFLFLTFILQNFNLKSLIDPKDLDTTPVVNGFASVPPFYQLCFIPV
Listing of entries alongside the reported pIC50.
The meaning of pIC50 here: minus log10 of the concentration in molar units.

# compound, pIC50
data = [
    ("Cc1cc2cc(n1)-c1cnn(C)c1OCCC[C@@H](C)CN1/C(=N/C2=O)Nc2ccc(N=S(C)(C)=O)c(Cl)c21 [WX-019]", 5.47),
]

In: Give its pIC50 value. Item: Cc1cc2cc(n1)-c1cnn(C)c1OC[C@H]1CC[C@H](C1)CN1/C(=N/C2=O)Nc2ccc(N=S(C)(C)=O)cc21 (single isomer, unassigned) [WX-027A]
Out: 5.01

====

Listing of entries alongside the reported Apparent clearance Cl.
- protocol: Pharmacokinetic assay of compounds in mice
- Format: in vivo, male ICR mice
- protocol conditions: IV 3 mg/kg
Numbers only; they are read as mL/min/kg.

Here are 4 compounds together with their reported answers.
# compound, Apparent clearance Cl, mL/min/kg
records = [
    ("Cc1cc2cc(n1)-c1cnn(C)c1OCCC[C@@H](C)CN1/C(=N/C2=O)Nc2ccc(N=S3(=O)CCOCC3)cc21 [WX-013]", 4.7),
    ("Cc1cc2cc(n1)-c1cnn(C)c1OC[C@H]1CC[C@H](C1)CN1/C(=N/C2=O)Nc2ccc(N=S(C)(C)=O)cc21 (single isomer, unassigned) [WX-027A]", 14.2),
    ("Cc1cc2cc(n1)-c1cnn(C)c1OCCC[C@@H](C)CN1/C(=N/C2=O)Nc2ccc(N=S3(=O)CCCC3)cc21 [WX-010 (trifluoroacetate)]", 5.7),
    ("Cc1cc2cc(n1)-c1cnn(C)c1OCCC[C@@H](C)CN1/C(=N/C2=O)Nc2ccc(N=S(C)(C)=O)c(Cl)c21 [WX-019]", 8.6),
]

Now for another entry.
In: Give its Apparent clearance Cl value. Item: Cc1cc2cc(n1)-c1cnn(C)c1OCCC[C@@H](C)CN1/C(=N/C2=O)Nc2ccc(N=S(C)(C)=O)cc21 [WX-006]
Out: 14.6
